Test system: MATIN
Experiment: Pre-emergence action against MATIN
Type: in vivo, Matricaria inodora
Conditions: Dosage 320 g/ha, pre-emergence
Provide the recorded Pre-emergence action against MATIN for the entries that follow.
Number in %, nothing else.

The reported Pre-emergence action against MATIN of the molecule CCCC(=O)c1c(C(F)(F)F)ccc(C(=O)Nc2nnnn2CC)c1Cl [2-139] was 100

// recorded Pre-emergence action against MATIN for CCn1nnnc1NC(=O)c1ccc(Cl)c(C(C)=O)c1Cl [2-114] : 90

Lookup result for CCn1nnnc1NC(=O)c1ccc(Cl)c(C(=O)C2CC2)c1Cl [2-116] ; measured Pre-emergence action against MATIN: 100

molecule CCn1nnnc1NC(=O)c1ccc(C(F)F)c(C(C)=O)c1Cl [2-164] , Pre-emergence action against MATIN observed: 100

The recorded Pre-emergence action against MATIN for CCn1nnnc1NC(=O)c1ccc(C)c(C(C)=O)c1Cl [2-134] is 90

The molecule listed as CCCn1nnnc1NC(=O)c1ccc(C(F)(F)F)c(C(=O)C2CC2)c1OC [3-50] has a reported Pre-emergence action against MATIN of 100

Briefly, Pre-emergence action against MATIN measured for CC1CC1C(=O)c1c(C(F)(F)F)ccc(C(=O)Nc2nnnn2C)c1Cl (centres unmarked) [1-148] : 100

The molecule listed as CCn1nnnc1NC(=O)c1ccc(C(F)(F)F)c(C(=O)C2CCC2)c1Cl [2-153] has a reported Pre-emergence action against MATIN of 100

Lab book: Pre-emergence action against MATIN of CCCn1nnnc1NC(=O)c1ccc(C(F)(F)F)c(C(C)=O)c1Br [3-195] noted as 100

Per the record, CCn1nnnc1NC(=O)c1ccc(C(F)(F)F)c(C(C)=O)c1Br [2-195] has Pre-emergence action against MATIN of 100

Lab book: Pre-emergence action against MATIN of CCCn1nnnc1NC(=O)c1ccc(C(F)(F)F)c(C(=O)C2CC2)c1Cl [3-141] noted as 100

According to the records, this molecule CCCn1nnnc1NC(=O)c1ccc(C(F)(F)F)c(C(C)=O)c1Cl [3-137] displays Pre-emergence action against MATIN of 100

Measured Pre-emergence action against MATIN of CCCn1nnnc1NC(=O)c1ccc(C)c(C(=O)C2CC2)c1C [3-3] : 100

The molecule CCCn1nnnc1NC(=O)c1ccc(C(F)(F)F)c(C(C)=O)c1SC [3-58] showed Pre-emergence action against MATIN equal to 100

Reported Pre-emergence action against MATIN for CCCn1nnnc1NC(=O)c1ccc(C)c(C(=O)C2CC2)c1Cl [3-136] was 90

Note to self: Pre-emergence action against MATIN recorded for CCCn1nnnc1NC(=O)c1ccc(S(C)(=O)=O)c(C(=O)C2CC2)c1Cl [3-129] was 100

Kindly note the recorded Pre-emergence action against MATIN for CCCn1nnnc1NC(=O)c1ccc(C(F)(F)F)c(C(=O)C2CCC2)c1SC [3-280] , which is 90

For this molecule ( CCCn1nnnc1NC(=O)c1ccc(C(F)(F)F)c(C(=O)CC)c1C [3-15] ), measured Pre-emergence action against MATIN is 100

Pre-emergence action against MATIN in this record for CCn1nnnc1NC(=O)c1ccc(Cl)c(C(=O)C(C)C)c1Cl [2-280] : 100

Pre-emergence action against MATIN reported for this molecule CCC(=O)c1c(Cl)ccc(C(=O)Nc2nnnn2CC)c1Cl [2-115] : 100
